# gcPBM binding intensity (ln) values compiled below
test system: PfAP2-G AP2 domain (GST-tagged); test: gcPBM binding intensity (ln(normalized median fluorescence intensity)); higher = stronger DNA binding
Over roughly 25,000 sequences, “ln(normalized median fluorescence intensity)” has its median near 10; the highest 2% begin near 12. This is one part of a sample in which the highest values are shown more often than they occur.

{"columns": ["entrySequence", "experimentalTarget", "gcPBM binding intensity (ln)"],
 "data": [
  ["TTCCCTTTTGTAAAATGTACATATATATTTAAACAA [XGTACX_site3263]", "PfAP2-G AP2 domain (GST-tagged)", 11.2],
  ["AAAAAAAAAAAAAAAAGTACATATGCTCAAGAGATG [XGTACX_site3783]", "PfAP2-G AP2 domain (GST-tagged)", 11.5],
  ["TACGTTTTAAAACACACACACAAAAAAAAAAAAAAA [CACACA_site3876]", "PfAP2-G AP2 domain (GST-tagged)", 9.97],
  ["TTTTAAATTTAGTGTAGTACACTTTTTTCAAATATA [XGTACX_site4659]", "PfAP2-G AP2 domain (GST-tagged)", 11.7],
  ["TATATTTTATATTAGTGTACAAATTTCATTTTTCAT [XGTACX_site2204]", "PfAP2-G AP2 domain (GST-tagged)", 11],
  ["TTCCAAAAAATTATTACACACATATGAGCACATATA [CACACA_site4543]", "PfAP2-G AP2 domain (GST-tagged)", 10.1],
  ["AAAAATAGTATAAGTAGTACAACTGAAAAGTTATGT [XGTACX_site7488]", "PfAP2-G AP2 domain (GST-tagged)", 11.6],
  ["GAAATATTTGTAAAAACATGCATGGTACTTTTAAAA [TGCATGCA_site6]", "PfAP2-G AP2 domain (GST-tagged)", 11],
  ["AAATAATTTATAAATAAATACATTGTTACTTTTTCT [GTGCAC_negctrl_site639]", "PfAP2-G AP2 domain (GST-tagged)", 9.62],
  ["CATTAATATATATATACATGCACGTTTTAAAAAAAA [TGCATGCA_site875]", "PfAP2-G AP2 domain (GST-tagged)", 10.1],
  ["CGGCACATTCTATATACACACATATAAATATATACA [CACACA_site566]", "PfAP2-G AP2 domain (GST-tagged)", 9.97],
  ["TCTTTTGAACAAATTTGTACGTATATAAAAATATTT [XGTACX_site6547]", "PfAP2-G AP2 domain (GST-tagged)", 11.4],
  ["TATAATAAAATATTTTGTACGTATATTTTAATATTT [XGTACX_site2582]", "PfAP2-G AP2 domain (GST-tagged)", 11.2],
  ["ACAAGATGATGGAAATGTACATAAAAAGAATCATAT [XGTACX_site8682]", "PfAP2-G AP2 domain (GST-tagged)", 11.2],
  ["TGTATGATTATGTTGTGTACGTAAAATATGAAAAAT [XGTACX_site1720]", "PfAP2-G AP2 domain (GST-tagged)", 11.5],
  ["ATTTTAAATATTTGTGGTACCCCTTTTTTGTAACAA [XGTACX_site5590]", "PfAP2-G AP2 domain (GST-tagged)", 11.8],
  ["AAAAAATACTTATAAAGTACTAATATATATAAGCAG [XGTACX_site743]", "PfAP2-G AP2 domain (GST-tagged)", 10.9],
  ["AAACAAAAGGAAAACATATATATATTAAATGTATAT [CACACA_negctrl_site1663]", "PfAP2-G AP2 domain (GST-tagged)", 9.64],
  ["ATATAAACATGTTTGTGTACGTAATATGAAAAATAA [XGTACX_site8157]", "PfAP2-G AP2 domain (GST-tagged)", 11.7]
]}

Origin of the recorded values: the supplement of paper PMC11417369
